Biological target: UniProt Q9P1Q5
Test: Dual-Glo luciferase reporter gene assay, OR1A1 in Hana3A cells
Format: cell-based
Set-up: The open reading frames of ORs were amplified using Phusion polymerase; Rho-tag (first 20 amino acids of human rhodopsin) (N); expressed in transfected cells; host or cells: Hana3A cells (derived from HEK293T), pCI vector; co-transfected with human RTP1S, M3 receptor, CRE-Luc and SV40-RL
Settings: OR1A1; three-parameter fit; 95% CI (profile likelihood); log[molecule], M
Value Kind: LogEC50

## Task What value of measured LogEC50 is listed for C=C(C)[C@H]1CC=C(C)CC1 ?
## Result -4.348 to -3.874

## Task Which LogEC50 value belongs to CCOC(=O)Cc1cccc(Br)c1 [Ethyl 2-(3-bromophenyl)acetate] ?
## Result -4.940 to -4.613

## Task Param item = COC(=O)Cc1ccccc1C [Methyl 2-(2-methylphenyl)acetate] ; retrieve measured LogEC50.
## Result -4.914 to -4.603

## Task For the compound shown here, O=C(c1ccccc1)c1ccccc1 , give the reported LogEC50.
## Result -5.608 to -5.081

* * *

Target: OR1A1 (Homo sapiens, UniProt Q9P1Q5)
Sequence (Q9P1Q5 1-309): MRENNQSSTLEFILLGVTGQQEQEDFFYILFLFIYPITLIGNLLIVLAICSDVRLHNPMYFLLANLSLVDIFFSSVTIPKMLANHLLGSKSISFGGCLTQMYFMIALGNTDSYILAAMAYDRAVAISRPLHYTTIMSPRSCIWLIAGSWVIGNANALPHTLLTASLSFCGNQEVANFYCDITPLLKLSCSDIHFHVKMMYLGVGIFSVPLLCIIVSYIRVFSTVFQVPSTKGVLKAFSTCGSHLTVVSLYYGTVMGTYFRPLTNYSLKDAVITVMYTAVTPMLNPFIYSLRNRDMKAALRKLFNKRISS
Experiment: Dual-Glo luciferase reporter gene assay, OR1A1 in Hana3A cells
Format: cell-based
Design: The open reading frames of ORs were amplified using Phusion polymerase; Rho-tag (first 20 amino acids of human rhodopsin) (N); expressed in transfected cells; host or cells: Hana3A cells (derived from HEK293T), pCI vector; co-transfected with human RTP1S, M3 receptor, CRE-Luc and SV40-RL
Conditions: OR1A1; log(agonist) vs. response (three parameters); 95% CI (profile likelihood); normalized (L-400/R-400)
Value Kind: Top

## Task API: value(readout=Top, system=OR1A1 (Homo sapiens, UniProt Q9P1Q5)) for record COC(=O)Cc1ccccc1C [Methyl 2-(2-methylphenyl)acetate]
## Result 11.79 to 13.66

## Task Item: O=C(c1ccccc1)c1ccccc1 [Benzophenone] Test system: OR1A1 (Homo sapiens, UniProt Q9P1Q5) Read-out: Top Value: ?
## Result 11.67 to 14.46

## Task What value of Top on OR1A1 (Homo sapiens, UniProt Q9P1Q5) does C=C(C)[C@H]1CC=C(C)CC1 [Dipentene] have?
## Result 11.22 to 15.68

## Task For OR1A1 (Homo sapiens, UniProt Q9P1Q5), provide Top of CCOC(=O)Cc1cccc(Br)c1 [Ethyl 2-(3-bromophenyl)acetate] please.
## Result 11.66 to 13.55

// provenance: paper PMC8583936
